B1: LINE1-full (parent)
chain: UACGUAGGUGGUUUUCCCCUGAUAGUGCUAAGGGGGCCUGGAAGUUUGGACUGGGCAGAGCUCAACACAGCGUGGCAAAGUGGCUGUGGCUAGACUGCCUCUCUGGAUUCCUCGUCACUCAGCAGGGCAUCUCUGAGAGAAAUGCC

Variants of: B1
Experiment: self-cleavage, relative activity (ratio to wild type); higher = more cleavage; in vitro, sequencing; the parent is a self-cleaving ribozyme
quantity_name: self-cleavage
Lab note: record the figure alone, no unit after it.

mutation_label: U1A A107G
self-cleavage: 1.67
//
mutation_label: A121G A140C
self-cleavage: 1.93
//
mutation_label: U29G A78G
self-cleavage: 0.87

Moving on to another variant below.
Find the recorded self-cleavage belonging to U46C U96A and report it. 0.08
